meta.source: patent US20220064648

Biological target: T1, SNAP25 Peptide 1 (PEP1) (Homo sapiens, UniProt P60880 SEQ:1-35)
T1 chain: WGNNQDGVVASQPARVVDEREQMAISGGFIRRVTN
Assay: ELONA

# binder, binding signal, ELISA signal
data = [
    ("PEP 1.16 (ssDNA, W indole, X amine, Y phenol modified dU [19 (Y phenol dU); 36,40 (W indole dU)]) DNA: TTTTTAACACGACGGGCCTGTGAACACCGAACTGATGGGTCGTGGGCCCATG", 212),
    ("PEP 1.10 (ssDNA, W indole, X amine, Y phenol modified dU [19,24,38 (W indole dU); 20 (Y phenol dU); 27 (X amine dU)]) DNA: TTTTTAACACGACGGGCGTTCGCTGGTCGAACACCAATGCTGTGGGCCCATG", 293),
    ("PEP 1.07 (ssDNA, W indole, X amine, Y phenol modified dU [14,25 (X amine dU); 19,35 (Y phenol dU); 24,40 (W indole dU)]) DNA: TTTTTAACACGACTCAACTGTGATTCCCACAGACTGGGCTCGTGGGCCCATG", 429),
    ("PEP 1.24 (ssDNA, W indole, X amine, Y phenol modified dU [19,36,38,43,46]) DNA: TTTTTAACACGACCGCCCTGTGGGCAACACAGGGATCTGCAGTCGTGCCATG", 160),
    ("PEP 1.15 (ssDNA, W indole, X amine, Y phenol modified dU [15,19,34 (Y phenol dU); 17,36 (W indole dU)]) DNA: TTTTTAAGCCCACCTCTCTGTGGGAGACACAGTTATTGCAGGTGGGCCCATG", 220),
    ("PEP 1.17 (ssDNA, W indole, X amine, Y phenol modified dU [19,38 (W indole dU); 20,34,35,46 (Y phenol dU); 25,43 (X amine dU)]) DNA: TTTTTAACACGACGGCGGTTCGCCTCCCGAACGTTGTTGGAGTCGTGCCATG", 200),
    ("PEP 1.03 (ssDNA, W indole, X amine, Y phenol modified dU [19,20,36]) DNA: TTTTTAACACGACGGGGGTTCGGGCAGCGAACAGATGGGCGGTGGGCCCATG", 677),
    ("PEP 1.14 (ssDNA, W indole, X amine, Y phenol modified dU [15,19,34 (Y phenol dU); 24,40 (W indole dU)]) DNA: TTTTTAAGCCCACCTGACTGTGGTGGGCACAGTTCGCCATCGTGGGCCCATG", 241),
    ("PEP 1.19 (ssDNA, W indole, X amine, Y phenol modified dU [15,19,34,43,46]) DNA: TTTTTAACACGACATAGCTGTGACAGGCACAGGTCATGGGAGTCGTGCCATG", 200),
    ("PEP 1.23 (ssDNA, W indole, X amine, Y phenol modified dU [14,15,19,25,38,43,46]) DNA: TTTTTAAGCCCACTTCACTGTGGCTCGCACAGGCCGATGGGGTCGTGCCATG", 168),
    ("PEP 1.22 (ssDNA, W indole, X amine, Y phenol modified dU [14,15,19,20]) DNA: TTTTTAACACGACTTGGGTTCGGAAGGCGAACCGCAGCAATGTGGGCCCATG", 184),
]
